system: NCI-H23; test: NCI tumour cell line growth inhibition, 48 h
The source made the active and inactive calls. Cut-off read from the data, not from the text of the source: active = GI50 up to about 1.1 µM and inactive = higher.
measured.quantity: GI50

INSERT INTO assay_data (compound, measured_quantity, result) VALUES
  ('Cc1cc(OCC(=O)N/N=C/C(Br)=C/c2ccccc2)nc(SCC(=O)N/N=C/C(Br)=C/c2ccccc2)n1', 'GI50', '> 100 µM (inactive)');

Please fill in: GI50 reported for CCCC(=O)Nc1ccc(O)c2c1C1CCCCCC21 (stereo not given) = > 100 µM (inactive)

Please fill in: GI50 reported for `CCCCNC(=S)Nc1nc(C(=O)NNC(=S)NC2CCCCC2)cs1` = > 100 µM (inactive)

Please fill in: GI50 reported for `Cc1c(-c2ccccc2)oc(=O)c2ccccc12` = 24.8 µM (inactive)

Please fill in: GI50 reported for COc1ccc(N2C(=O)C3c4[nH]c5ccc(OC)cc5c4C4CCC(C(C)(C)C)CC4C3C2=O)cc1 (stereo not given) = 19.1 µM (inactive)

----------
system: IGROV-1; test: NCI tumour cell line growth inhibition, 48 h
Calls of active or inactive are those of the source. Rule as the data show it: active = GI50 up to about 1.1 µM and inactive = higher.
Pick from active, inactive when you respond.

The examples below pair each entry with its known result.
INSERT INTO measurements (compound, category) VALUES
  ('N=C(N)Cn1cnc2ccccc21', 'inactive'),
  ('CC1=CC[C@@H](C(C)(C)O)C[C@@H]1O', 'inactive'),
  ('Nc1ccc2n[se]nc2c1', 'inactive');

Which outcome was entered for the compound `COC(=O)c1ccc(/N=N/N(C)COc2ccc(C#N)cc2)cc1` in this test? inactive

Which outcome was entered for the compound `C=C1C(=O)O[C@@H]2C[C@@H](C)[C@@H]3C=CC(=O)[C@@]3(C)[C@@H](OC(=O)CCCC(=O)O[C@H]3[C@@H]4C(=C)C(=O)O[C@@H]4C[C@@H](C)[C@@H]4C=CC(=O)[C@]43C)[C@H]12` in this test? active

Which outcome was entered for the compound `O=C1c2ccccc2C(=O)c2c(NC(=O)c3ccc4c5c(ncnc35)-c3ccccc3C4=O)cccc21` in this test? inactive

----------
system: MDA-MB-435; test: NCI tumour cell line growth inhibition, 48 h
The source made the active and inactive calls. Rule as the data show it: active = GI50 up to about 1.1 µM and inactive = higher.
Pick from t for active, f for inactive when you respond.

The examples below pair each entry with its known result.
INSERT INTO measurements (compound, assay_system, category) VALUES
  ('Cc1cc(C)nc(NS(=O)(=O)c2ccc(Nc3c4ccccc4nc4c(C(=O)NNCCO)cccc34)cc2)n1', 'MDA-MB-435', 'f'),
  ('C=CC1ON(C)CCc2cc(OC)c(OC)cc21 (centres undefined)', 'MDA-MB-435', 'f'),
  ('C=C1C(=O)O[C@@H]2C[C@@H](C)[C@@H]3C=CC(=O)[C@@]3(C)[C@@H](OC(=O)CCCC(=O)O[C@H]3[C@@H]4C(=C)C(=O)O[C@@H]4C[C@@H](C)[C@@H]4C=CC(=O)[C@]43C)[C@H]12', 'MDA-MB-435', 't'),
  ('O=C1C(c2ccccc2)=[N+]([O-])c2ccccc21', 'MDA-MB-435', 'f'),
  ('O=C(NNC(=S)NCc1ccccc1)c1csc(NC(=S)NC2CCCCC2)n1', 'MDA-MB-435', 'f'),
  ('CCc1c(-c2ccc(OC)cc2)c(=O)oc2cc(O)ccc12', 'MDA-MB-435', 'f'),
  ('COc1ccccc1C(=O)NO', 'MDA-MB-435', 'f'),
  ('COC(=O)CCC(C)[C@H]1CCC2C3CC[C@@H]4CC5(CC[C@]4(C)C3C[C@H](OC(C)=O)[C@@]21C)OOC1(CCCCC1)OO5 (some centres undefined)', 'MDA-MB-435', 'f');

Now examine the next entry.
Which outcome was entered for the compound `COc1cc2oc(=O)cc(C)c2c(OC)c1O` in this test? f

----------
tested on: BT-549; assay: NCI tumour cell line growth inhibition, 48 h
Activity calls are given as the source filed them. Rule as the data show it: active = GI50 up to about 1.1 µM and inactive = higher.
measured.quantity: GI50

Please fill in: GI50 reported for `CC(=O)/C(=C\Nc1c(C)n(C)n(C)c1=O)C(=O)c1ccccc1` = > 50 µM (inactive)

Please fill in: GI50 reported for COc1cc(NC(C)CCCN)c2nccc(C)c2c1 (stereo unspecified) = 15.8 µM (inactive)

Please fill in: GI50 reported for `O=C1NC(N2CCOCC2)=N/C1=C\c1cccs1` = > 100 µM (inactive)

Please fill in: GI50 reported for `C/C(=C\CO)CC/C=C(\C)CNc1c(F)c(F)c(F)c(F)c1F` = 6.4 µM (inactive)

Please fill in: GI50 reported for `O=[N+]([O-])c1c(F)c(F)c2c(c1F)Nc1ccccc1S2` = 11 µM (inactive)

Please fill in: GI50 reported for CCOC(=O)C(NC(=O)c1ccccc1)(Nc1ccc(S(=O)(=O)Nc2nc(C)cc(C)n2)cc1)C(F)(F)F (stereo unspecified) = > 100 µM (inactive)

----------
tested on: DU-145; experiment: NCI tumour cell line growth inhibition, 48 h
Activity calls are given as the source filed them. Rule as the data show it: active = GI50 up to about 1.1 µM and inactive = higher.
Pick from true (1) (active), false (0) (inactive) when you respond.

The examples below pair each entry with its known result.
INSERT INTO results (compound, category) VALUES
  ('Cc1cnoc1NS(=O)(=O)c1ccc(Nc2nnc(/C=C/c3c(O)ccc4ccccc34)c(=O)n2N)cc1', 'false (0)'),
  ('C/C=C(/C)C(=O)O[C@H]1[C@H](O)CC(c2ccc3c(c2O)C(=O)C2=C(O)C4(OC)C(=O)C(C(N)=O)=C(O)[C@H](CC(=O)c5ccccc5O)C4CC2[C@@]3(C)OC)O[C@@H]1C (some centres undefined)', 'true (1)');

Which outcome was entered for the compound `CC(=O)C1=C(C)NC(=C(C#N)C#N)C(C#N)=C1` in this test? false (0)

Which outcome was entered for the compound O=C(O)C(O)C(O)C(O)C(=O)CO (centres undefined) in this test? false (0)

Which outcome was entered for the compound COc1ccc(/C=C2\C(=O)N(C3OC(COC(C)=O)C(OC(C)=O)C(OC(C)=O)C3OC(C)=O)c3ccccc3N=C2N)cc1 (centres undefined) in this test? false (0)

Which outcome was entered for the compound `Cc1ccc(C(=O)N/N=C(\N=N\c2ccc(C(=O)O)cc2)c2ccc(N(CCC#N)CCC#N)cc2C)cc1` in this test? false (0)

Which outcome was entered for the compound `COC(=O)NC1(NC(=O)OC)NC(=O)c2cc(OC)c(OC)cc2N1` in this test? false (0)

Which outcome was entered for the compound `c1csc(-c2csc(-c3cccs3)c2)c1` in this test? false (0)

Which outcome was entered for the compound `COC(=O)c1ccc(/N=N/N(C)COc2ccc(C#N)cc2)cc1` in this test? false (0)

----------
test system: SNB-19; assay: NCI tumour cell line growth inhibition, 48 h
Activity calls are given as the source filed them. Rule as the data show it: active = GI50 up to about 1.1 µM and inactive = higher.
measured.quantity: GI50

INSERT INTO measurements (molecule, result) VALUES
  ('COc1cc(C(C)c2cc3c(cc2OCCN)OCO3)cc(OC)c1OC (configuration not stated)', '54.8 µM (inactive)'),
  ('COc1ccccc1C(=O)NO', '> 100 µM (inactive)'),
  ('COc1cc2oc(=O)cc(C)c2c(OC)c1O', '> 100 µM (inactive)'),
  ('Cc1nc2cc(N)c(F)cc2[nH]1', '> 100 µM (inactive)'),
  ('COC(=O)C1=C(OC)C(=P2(c3ccccc3)CC(c3ccccc3)=C2c2ccccc2)C(C(=O)OC)=C1C(=O)OC (configuration not stated)', '67.1 µM (inactive)'),
  ('CC(C)(C)C1CCC2c3c([nH]c4ccccc34)C3C(=O)N(c4ccc5c(c4)C(=O)c4ccccc4C5=O)C(=O)C3C2C1 (configuration not stated)', '> 100 µM (inactive)');

Please fill in: GI50 reported for COc1cc(O)c2c(c1C)C(C)(O)c1c(C)coc1C2=O (configuration not stated) = > 100 µM (inactive)

Please fill in: GI50 reported for `C=C1C[C@@H]2O[C@H]3[C@H]4[C@@H](C[C@@H](C)[C@@H](OC(C)=O)[C@H]42)[C@@H](C)CO[C@@]3(C)[C@H](OC(C)=O)C[C@H]1O` = > 100 µM (inactive)

----------
system: OVCAR-5; test: NCI tumour cell line growth inhibition, 48 h
Active and inactive are the calls of the source. No stated cut-off is given here; in the data, active = GI50 up to about 1.1 µM and inactive = higher.
Pick from true (1) = active, false (0) = inactive when you respond.

INSERT INTO results (compound, category) VALUES
  ('CN1C(=O)N/C(=C\c2ccc(S(=O)(=O)N/N=C\C(O)C(O)C(O)CO)cc2)C1=O (centres undefined)', 'false (0)');

Which outcome was entered for the compound O=c1[nH]c(=O)n(C2CC(O)C(CO)O2)cc1C1=NC1 (centres undefined) in this test? false (0)

Which outcome was entered for the compound COC(=O)C(Cc1nc2ccc(Cl)cc2nc1O)/C(=N\N)C(=O)Nc1cc(C)c(Cl)cc1S(=O)(=O)O (centres undefined) in this test? false (0)

Which outcome was entered for the compound `Cc1c(C(=O)C/C(=N\O)C(=O)Nc2cc(Cl)c(Cl)cc2Cl)[n+]([O-])c2ccccc2[n+]1[O-]` in this test? false (0)

Data provenance is ChEMBL document CHEMBL1201862.
